Molecular target: pooled human IgG
value_kind: Enzyme Activity Endpoint Assay (purified): Fab'2 (ng/µL)
// return numeric value only (unit: ng/µL, not printed)

Measured Enzyme Activity Endpoint Assay (purified): Fab'2 of PRT-274 (protein) MVTSVWTKGVTPPTDFIYGEDVLHAPYKAGQGWYDITKTFNGKDNLLCGAATAGNMLHWWFDQNKEQIENYLKKHPEKQKIIFNNQELFDLKAAIDTKDSQLDSKLFDYFKEKAFPNLSTKHLGVFPDHVIDMFINGYRLSLLNHGPTPVKRGSKDKRGGIFDAVFTRGVQSKLLTNRHDLKNKTLKEISDLIKQELTEGKALGISHTYANVRINHVINLWGADFDAEGNLEAIYVTDSDTNPSIGMKKYFVGVNSSGKVAISAKEIEEDNIGAQVLGLFTLSTGQDIWNQTN : 1040
